Experiment: Metabolic stability in mouse small intestinal microsome
Type: in vitro ADME
Details: Table 8, mouse
Description: The obtained compound was metabolically reacted at a concentration of 2 uM with mouse serum (male/female mixed, Valley Biomedical, USA) (adjusted to pH 7.4 with 33.5 mM HEPES buffer) for two hours. Deproteinization treatment with acetonitrile was provided over time, the amount of the remaining unchanged compound was analyzed using LC/MS, and the metabolic half-life (t1/2) was calculated. […]
Starred links: 1 amine or outer side, 2 acyl side, 3 side chain; linkers in the order of their positions; H or OH if unused. Positions of bridges follow the written chain, without caps; N, C: chain ends. Non-standard residues stand in square brackets, D forms with d. Residues, ends and D or L forms follow the SMILES beside them. ξ: configuration not given here. *: point of attachment. Cys(O)(CH2CO) = O=C([C@H](C[S+]([O-])CC(=O)[*:3])N[*:1])[*:2]; NMeF = CN[C@@H](Cc1ccccc1)C(=O)O; NMeI = CC[C@H](C)[C@H](NC)C(=O)O; NMeL = CN[C@@H](CC(C)C)C(=O)O; NMeA = CN[C@@H](C)C(=O)O; Piperidide = C1CCN(*)CC1; ξC = NC(CS)C(=O)O; Sar = CNCC(=O)O; tBu = CC(C)(C)*
attributeMeasured: Intestinal Microsome CLg, int Mouse (ul/min/mg Protein)

1. CC[C@H](C)[C@H]1C(=O)N[C@H](C(=O)N2CCCCC2)C[S+]([O-])CC(=O)N(C)[C@@H](C)C(=O)N(C)[C@@H](Cc2ccccc2)C(=O)N(C)[C@@H](CC(C)C)C(=O)N[C@@H]([C@@H](C)O)C(=O)N(C)CC(=O)N(C)[C@@H](CC(C)C)C(=O)N[C@@H](COC(C)(C)C)C(=O)N1C (stereo partly drawn) [Compound P-114] ([NMeA][NMeF][NMeL]T[Sar][NMeL]S(tBu)[NMeI][Cys(O)(CH2CO)]-Piperidide; lactam N-9)
9.1
2. CC[C@H](C)[C@H]1C(=O)N[C@H](C(=O)N2CCCCC2)CS(=O)(=O)CC(=O)N(C)[C@@H](C)C(=O)N(C)[C@@H](Cc2ccccc2)C(=O)N(C)[C@@H](CC(C)C)C(=O)N[C@@H]([C@@H](C)O)C(=O)N(C)CC(=O)N(C)[C@@H](CC(C)C)C(=O)N[C@@H](COC(C)(C)C)C(=O)N1C
21.8
3. CC(C)C[C@H]1C(=O)N[C@@H](COC(C)(C)C)C(=O)N[C@H](C(=O)N2CCCCC2)CSCC(=O)N(C)[C@@H](C)C(=O)N(C)[C@@H](Cc2ccccc2)C(=O)N(C)[C@@H](CC(C)C)C(=O)N[C@@H]([C@@H](C)O)C(=O)N(C)CC(=O)N1C [Compound P-102] ({CH2CO}-[NMeA][NMeF][NMeL]T[Sar][NMeL]S(tBu)C-Piperidide; thioether N-8)
79.0
4. CC[C@H](C)[C@H]1C(=O)N[C@H](C(=O)N2CCCCC2)CSCC(=O)N(C)[C@@H](Cc2ccccc2)C(=O)N(C)[C@@H](CC(C)C)C(=O)N[C@@H]([C@@H](C)O)C(=O)N(C)CC(=O)N(C)[C@@H](CC(C)C)C(=O)N[C@@H](COC(C)(C)C)C(=O)N1C [Compound P-103] ({CH2CO}-[NMeF][NMeL]T[Sar][NMeL]S(tBu)[NMeI]C-Piperidide; thioether N-8)
66.3
5. CC[C@H](C)[C@H]1C(=O)NC(C(=O)N2CCCCC2)CSCC(=O)N(C)[C@@H](Cc2ccccc2)C(=O)N(C)[C@@H](C)C(=O)N(C)[C@@H](Cc2ccccc2)C(=O)N(C)[C@@H](CC(C)C)C(=O)N[C@@H]([C@@H](C)O)C(=O)N(C)CC(=O)N(C)[C@@H](CC(C)C)C(=O)N[C@@H](COC(C)(C)C)C(=O)N1C (stereo partly drawn) [Compound P-112] ({CH2CO}-[NMeF][NMeA][NMeF][NMeL]T[Sar][NMeL]S(tBu)[NMeI][ξC]-Piperidide; thioether N-10)
25.9
6. CC[C@H](C)[C@H]1C(=O)N[C@H](C(=O)N2CCCCC2)CSCC(=O)N(C)[C@@H](C)C(=O)N(C)[C@@H](Cc2ccccc2)C(=O)N(C)[C@@H](CC(C)C)C(=O)N[C@@H]([C@@H](C)O)C(=O)N(C)CC(=O)N(C)[C@@H](CC(C)C)C(=O)N[C@@H](COC(C)(C)C)C(=O)N1C [Compound P-109] ({CH2CO}-[NMeA][NMeF][NMeL]T[Sar][NMeL]S(tBu)[NMeI]C-Piperidide; thioether N-9)
45.8
